target: insulin receptor (IR); interaction of IR-Rluc with IRS1-YFP in HEK293 cells (Homo sapiens); construct: expressed in transfected cells; host or cells: HEK293 cells, transient co-transfection; plasmids provided by Dr. Tarik Issad (Cochin Institute, Paris); experiment: BRET assay of IR activation (IR-Rluc/IRS1-YFP), single treatment, dose-response; format: cell-based; details: HEK293, read-out: BRET, % of the maximal response of insulin, Average, peptide 0.01 mg/ml; HEK293, 1 hour, 37°C; minimal data set for Figure 1, average
Sequence (P06213 28-758 limits assumed): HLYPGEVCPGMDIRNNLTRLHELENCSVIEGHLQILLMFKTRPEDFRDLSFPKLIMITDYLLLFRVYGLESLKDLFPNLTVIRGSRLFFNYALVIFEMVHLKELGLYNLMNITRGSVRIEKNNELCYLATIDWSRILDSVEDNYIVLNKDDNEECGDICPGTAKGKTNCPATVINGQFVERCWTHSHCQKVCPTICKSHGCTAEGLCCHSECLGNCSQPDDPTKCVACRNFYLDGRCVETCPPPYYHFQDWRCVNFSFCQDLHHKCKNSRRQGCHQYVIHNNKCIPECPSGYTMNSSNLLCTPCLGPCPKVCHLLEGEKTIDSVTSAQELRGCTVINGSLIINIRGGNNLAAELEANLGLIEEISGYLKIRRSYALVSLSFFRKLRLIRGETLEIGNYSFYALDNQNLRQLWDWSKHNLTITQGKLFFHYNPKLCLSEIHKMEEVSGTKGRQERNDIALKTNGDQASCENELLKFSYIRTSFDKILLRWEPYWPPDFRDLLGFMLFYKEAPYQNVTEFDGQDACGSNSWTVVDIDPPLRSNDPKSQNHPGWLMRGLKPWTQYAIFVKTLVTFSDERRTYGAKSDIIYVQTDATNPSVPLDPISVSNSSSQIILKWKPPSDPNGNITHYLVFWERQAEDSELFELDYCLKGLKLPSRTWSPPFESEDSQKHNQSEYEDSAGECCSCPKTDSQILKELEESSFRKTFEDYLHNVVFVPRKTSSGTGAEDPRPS
Sequence (P06213 763-1382 limits assumed): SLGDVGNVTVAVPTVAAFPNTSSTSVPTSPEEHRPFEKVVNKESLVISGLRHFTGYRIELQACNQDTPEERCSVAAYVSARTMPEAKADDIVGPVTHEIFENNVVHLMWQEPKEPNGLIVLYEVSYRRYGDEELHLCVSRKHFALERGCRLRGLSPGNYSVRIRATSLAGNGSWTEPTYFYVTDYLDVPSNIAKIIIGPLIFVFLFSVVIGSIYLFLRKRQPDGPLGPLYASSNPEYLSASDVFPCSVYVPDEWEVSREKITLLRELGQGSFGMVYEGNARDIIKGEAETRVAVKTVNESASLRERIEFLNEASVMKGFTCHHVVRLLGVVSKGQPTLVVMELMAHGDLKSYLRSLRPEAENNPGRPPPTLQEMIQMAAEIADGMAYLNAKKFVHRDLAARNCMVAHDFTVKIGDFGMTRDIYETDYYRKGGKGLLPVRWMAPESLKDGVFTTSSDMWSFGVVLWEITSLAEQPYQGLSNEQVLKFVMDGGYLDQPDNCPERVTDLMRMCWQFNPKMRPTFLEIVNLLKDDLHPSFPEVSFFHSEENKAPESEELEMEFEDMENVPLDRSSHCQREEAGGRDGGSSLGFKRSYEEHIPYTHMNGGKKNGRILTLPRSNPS
Residues, ends and D or L forms follow the SMILES beside them.
MEASUREMENT_NAME: Emax (%)
Answer with a number only, understood to be in %.

COMPOUND	UOM	Emax
CC(C)C[C@H](N)C(=O)N1CCC[C@H]1C(=O)N[C@H](C(=O)N1CCC[C@H]1C(=O)N[C@@H](CCC(N)=O)C(=O)O)C(C)C [Peptide P3, LPVPQ] (H-LPVPQ-OH; N-terminus and C-terminus assumed)	%	19.1

Please find the next compound below.
Asked: Give insulin receptor (IR); interaction of IR-Rluc with IRS1-YFP in HEK293 cells (Homo sapiens) Emax for CSCC[C@H](NC(=O)[C@H](Cc1c[nH]cn1)NC(=O)[C@H](CS)NC(=O)[C@@H]1CCCN1C(=O)[C@H](CC(C)C)NC(=O)[C@@H]1CCCN1C(=O)[C@@H]1CCCN1C(=O)[C@H](CC(C)C)NC(=O)[C@H](CS)NC(=O)[C@H](CS)NC(=O)[C@H](C)NC(=O)[C@@H](NC(=O)[C@H](C)NC(=O)[C@@H]1CCCN1)C(C)C)C(=O)O [Peptide P2] (H-PAVACCLPPLPCHM-OH; N-terminus and C-terminus assumed)
Given back: 32.1

* * *

Documented insulin-induced BRET, % of insulin's response in the vehicle across a set of compounds
tested on: insulin receptor (IR); insulin-induced IR-Rluc/IRS1-YFP BRET in HEK293 cells; experiment: BRET assay of IR activation, peptides combined with insulin; type: cell-based, human; conditions: Experiment 3; 1 μM insulin + 0.1 mg/ml peptide, HEK293; minimal data set for Figure 2
Residues, ends and D or L forms follow the SMILES beside them.
Enter the number alone.

Recorded insulin-induced BRET, % of insulin's response in the vehicle, per entry:
COMPOUND	OBSERVED_VALUE
CC[C@H](C)[C@H](NC(=O)[C@@H]1CCCN1C(=O)[C@@H](N)Cc1ccc(O)cc1)C(=O)O [Peptide P9, YPI] (H-Tyr-Pro-Ile-OH; N-terminus and C-terminus assumed)	107.9
CC(C)[C@H](N)C(=O)N1CCC[C@H]1C(=O)N[C@@H](Cc1ccccc1)C(=O)O [Peptide P7, VPF] (H-Val-Pro-Phe-OH; N-terminus and C-terminus assumed)	179.1
CC(C)C[C@H](NC(=O)[C@H](Cc1ccccc1)NC(=O)[C@@H]1CCCN1C(=O)[C@H](CCCNC(=N)N)NC(=O)[C@@H](N)CC(C)C)C(=O)O [Peptide P1, LRPFL] (H-LRPFL-OH)	66.9
CSCC[C@H](NC(=O)[C@H](Cc1c[nH]cn1)NC(=O)[C@H](CS)NC(=O)[C@@H]1CCCN1C(=O)[C@H](CC(C)C)NC(=O)[C@@H]1CCCN1C(=O)[C@@H]1CCCN1C(=O)[C@H](CC(C)C)NC(=O)[C@H](CS)NC(=O)[C@H](CS)NC(=O)[C@H](C)NC(=O)[C@@H](NC(=O)[C@H](C)NC(=O)[C@@H]1CCCN1)C(C)C)C(=O)O [Peptide P2] (H-PAVACCLPPLPCHM-OH; N-terminus and C-terminus assumed)	14.3
CC(C)C[C@H](N)C(=O)N1CCC[C@H]1C(=O)N[C@H](C(=O)N1CCC[C@H]1C(=O)O)C(C)C [Peptide P6, LPVP] (H-LPVP-OH; N-terminus and C-terminus assumed)	142.3

Then there is this compound:
Asked: Find the recorded insulin-induced BRET, % of insulin's response in the vehicle belonging to CC(C)C[C@H](N)C(=O)N1CCC[C@H]1C(=O)N[C@H](C(=O)N1CCC[C@H]1C(=O)N[C@@H](CCC(N)=O)C(=O)O)C(C)C [Peptide P3, LPVPQ] (H-LPVPQ-OH; N-terminus and C-terminus assumed) and report it.
Given back: 81.8

* * *

target: insulin receptor (IR); interaction of IR-Rluc with IRS1-YFP in HEK293 cells (Homo sapiens); construct: expressed in transfected cells; host or cells: HEK293 cells, transient co-transfection; plasmids provided by Dr. Tarik Issad (Cochin Institute, Paris); experiment: BRET assay of IR activation (IR-Rluc/IRS1-YFP), single treatment, dose-response; assay type: cell-based; settings: HEK293, read-out: BRET, % of the maximal response of insulin, Average, peptide 1 mg/ml; HEK293, 1 hour, 37°C; minimal data set for Figure 1, average
Residues, ends and D or L forms follow the SMILES beside them.
Entries and their Emax
Reply with just the number (in %).

COMPOUND	MEASUREMENT_NAME	OBSERVED_VALUE
CSCC[C@H](NC(=O)[C@H](Cc1c[nH]cn1)NC(=O)[C@H](CS)NC(=O)[C@@H]1CCCN1C(=O)[C@H](CC(C)C)NC(=O)[C@@H]1CCCN1C(=O)[C@@H]1CCCN1C(=O)[C@H](CC(C)C)NC(=O)[C@H](CS)NC(=O)[C@H](CS)NC(=O)[C@H](C)NC(=O)[C@@H](NC(=O)[C@H](C)NC(=O)[C@@H]1CCCN1)C(C)C)C(=O)O [Peptide P2] (H-PAVACCLPPLPCHM-OH; N-terminus and C-terminus assumed)	Emax	58.9

Asked: Recorded Emax of CC(C)C[C@H](N)C(=O)N1CCC[C@H]1C(=O)N[C@H](C(=O)N1CCC[C@H]1C(=O)N[C@@H](CCC(N)=O)C(=O)O)C(C)C [Peptide P3, LPVPQ] (H-LPVPQ-OH; N-terminus and C-terminus assumed) , please.
Given back: 41.4
